- System: KRAS-mutant PDC multicell tumor spheroid viability;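 note: viability read after seven days of drug exposure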
- test_method_notes: Anticancer human tumor 521955-158-R2-J5-PDC patient-derived pancreatic carcinoma cell line growth inhibition [KRAS2]
- test_settings: curve of first compound; second compound 0.1 µM
- Text: Multicellular complex tumor spheroid response to RAS pathway inhibitors in combination with a targeted agents in patient-derived cell lines with oncogenic KRAS variants from multiple cancer types A high-throughput screen of multi-cell type tumor spheroids was designed to identify active combinations of targeted small molecules and KRAS pathway inhibitors. […] Compounds. […] If the clinical Cmax for an agent had not been determined, the highest concentration tested was 10 microM. […]
experimental_readout: IC50 (nM)
The answer is to be given in nM; state only the numeric part.

| compound | reported_measurement |
| --- | --- |
| CC1(C)CCC(CN2CCN(c3ccc(C(=O)NS(=O)(=O)c4ccc(NCC5CCOCC5)c([N+](=O)[O-])c4)c(Oc4cnc5[nH]ccc5c4)c3)CC2)=C(c2ccc(Cl)cc2)C1 + CC1OCC2(CCN(c3cnc(Sc4ccnc(N)c4Cl)c(N)n3)CC2)C1N | 5300 |
| CC(C)n1nc(-c2ccc3oc(N)nc3c2)c2c(N)ncnc21 + C=CC(=O)N1CCN(c2nc(OCC3CCCN3C)nc3c2CCN(c2cccc4cccc(C)c24)C3)CC1CC#N | 6.8 |

# context switch: different compound, same IC50
Please give the measured IC50 for this compound: CCNC(=O)CC1N=C(c2ccc(Cl)cc2)c2cc(OC)ccc2-n2c(C)nnc21 (stereo not given) + C=CC(=O)N1CCN(c2nc(OCC3CCCN3C)nc3c2CCN(c2cccc4cccc(C)c24)C3)CC1CC#N
340
